Listed compounds paired with reported MIC
test system: Staphylococcus aureus; experiment: Antibacterial activity against methicillin-resistant vancomycin-intermediate resistant Staphylococcus aureus NRS402 after 24 hrs by broth microdilution method; format: functional; conditions: NRS402, 24 h
Structures can show the parent of a compound that is named as a salt.
# unit: µM | format: bare number

Item under review: CCC(C)C(=O)c1c(O)cc(O)cc1O (stereo unspecified) . Reported MIC?
32

Item under review: CCCc1c(O)c(C(=O)C(C)CC)c(O)c(-c2c(O)c(CCC)c(O)c(C(=O)C(C)CC)c2O)c1O (stereo unspecified) . Reported MIC?
0.5

Item under review: CN[C@H](CC(C)C)C(=O)N[C@H]1C(=O)N[C@@H](CC(N)=O)C(=O)N[C@H]2C(=O)N[C@H]3C(=O)N[C@H](C(=O)N[C@H](C(=O)O)c4cc(O)cc(O)c4-c4cc3ccc4O)[C@H](O)c3ccc(c(Cl)c3)Oc3cc2cc(c3O[C@@H]2O[C@H](CO)[C@@H](O)[C@H](O)[C@H]2O[C@H]2C[C@](C)(N)[C@H](O)[C@H](C)O2)Oc2ccc(cc2Cl)[C@H]1O [VANCOMYCIN HYDROCHLORIDE] . Reported MIC?
5.5

Item under review: CCC(C)C(=O)c1c(O)cc(O)c2c1oc1c(C(=O)C(C)CC)c(O)cc(O)c12 (stereo unspecified) . Reported MIC?
8

Item under review: CCCc1c(O)cc(O)c(C(=O)C(C)CC)c1O (stereo unspecified) . Reported MIC?
64

----------
test system: Saccharomyces cerevisiae; experiment: Toxicity in Saccharomyces cerevisiae BY4741 assessed as cell growth at 128 uM after 24 to 48 hrs by broth microdilution method relative to control; format: organism-based
property label: Activity

molecule: CCCc1c(O)cc(O)c(C(=O)C(C)CC)c1O (configuration not stated)
target of assay: Saccharomyces cerevisiae
Activity: 20 to 40%

Could you now consider this next molecule?
Could you share what Activity was measured for CCC(C)C(=O)c1c(O)cc(O)c(CCC(C)C)c1O (configuration not stated) , tested on Saccharomyces cerevisiae?
20 to 40%

----------
Listed compounds paired with reported MIC
tested on: Staphylococcus aureus; assay: Antibacterial activity against methicillin-resistant vancomycin-intermediate resistant Staphylococcus aureus NRS402 after 24 hrs by broth microdilution method; type: functional; conditions: NRS402, 24 h
# unit: µM | format: bare number

compound: CCC(C)C(=O)c1c(O)c(CCC(C)C)c(O)c(-c2c(O)c(CCC(C)C)c(O)c(C(=O)C(C)CC)c2O)c1O (centres undefined)
property label: MIC
quantitative readout: 1

compound: CCC(C)C(=O)c1c(O)cc(O)c(CCC(C)C)c1O (centres undefined)
property label: MIC
quantitative readout: 32

compound: Cc1onc(-c2ccccc2)c1C(=O)N[C@@H]1C(=O)N2[C@@H]1SC(C)(C)[C@@H]2C(=O)O
property label: MIC
quantitative readout: 150

Could you now consider this next compound?
Item under review: CCCc1c(O)c(C(=O)C(C)CC)c2oc3c(C(=O)C(C)CC)c(O)c(CCC)c(O)c3c2c1O (centres undefined) . Reported MIC?
0.5

----------
Listed compounds paired with reported Activity
test system: Saccharomyces cerevisiae; assay: Toxicity in Saccharomyces cerevisiae harboring mad2 deletion mutant assessed as cell growth at 128 uM after 24 to 48 hrs by broth microdilution method relative to control; assay type: organism-based; details: in vivo

compound: CCC(C)C(=O)c1c(O)cc(O)c(CCC(C)C)c1O (configuration not stated)
Activity: 20 to 40%

Item under review: CCCc1c(O)cc(O)c(C(=O)C(C)CC)c1O (configuration not stated) . Reported Activity?
20 to 40%
